Tested on: MCF7
Test: Cytotoxicity against human MCF7 cells
Type: cell-based
Listing of recorded IC50 by entry.
// units = µM; emit number, no label

Under MCF7: IC50 value of Oc1cc(O)c2c(c1)CCCCC/C=C/CCCCCCCc1cc(O)c-2c(O)c1 [DEHYDROGRAVIPHANE] ?
30.7

Under MCF7: IC50 value of Oc1cc(O)cc(CCCCC/C=C/CCCCCCCc2cc(O)cc(O)c2)c1 ?
28.6

Under MCF7: IC50 value of Oc1cc2cc(c1)Oc1c(O)cc(cc1O)[C@H](O)CCCCCCCCCCCCC2 ?
30.6

Under MCF7: IC50 value of Oc1cc2cc(c1)Oc1c(O)cc(cc1O)CCCCCCC/C=C/CCCCC2 [DEHYDROROBUSTOL A] ?
31.8

Under MCF7: IC50 value of Oc1cc(O)cc(CCCCCCCCCCCCCCc2cc(O)cc(O)c2)c1 ?
29.2

Under MCF7: IC50 value of COc1cc(O)cc(CCCCCCCCCCCCCCc2cc(O)cc(O)c2)c1 ?
29.4

Under MCF7: IC50 value of COc1cc(O)cc2c1-c1c(O)cc(cc1O)CCCCCCC/C=C/CCCCC2 ?
29.3

Under MCF7: IC50 value of COc1cc(O)cc2c1-c1c(O)cc(cc1O)CCCCCCCCCCCCCC2 ?
30.8

Under MCF7: IC50 value of Oc1cc2cc(c1)Oc1c(O)cc(cc1O)[C@H](O)CCCCCC/C=C/CCCCC2 [DEHYDROGRAVICYCLE] ?
30

---

Tested on: MCF7
Assay: Cytotoxicity against human MCF7 cells
Type: cell-based
Listing of recorded pIC50 by entry.
The scale used: pIC50 is minus the common logarithm of the concentration in molar units.

// solved cases for pIC50 follow
1. Oc1cc(O)c2c(c1)CCCCCCCCCCCCCCc1cc(O)c-2c(O)c1	4.54
2. COc1cc(O)cc(CCCCCCC/C=C/CCCCCc2cc(O)cc(O)c2)c1 [DEHYDROBISGRAVILLOL]	4.53
3. Oc1cc2cc(c1)Oc1c(O)cc(cc1O)CCCCCCCCCCCCCC2	4.49

Tell me the measured pIC50 of CCCCCCCCCCCCCCCc1cc(O)cc(O)c1 , please.
4.43
